Readings of pKi for the listed compounds
- MEASUREMENT PROTOCOL: Displacement of ivermectin from avermectin receptor of Caenorhabditis elegans
pKi: −log10 of the molar value.

I am curious: what pKi value has been reported for CC[C@H](C)[C@H]1O[C@]2(CC[C@@H]1C)C[C@@H]1C[C@@H](C/C=C(\C)[C@@H](N)[C@@H](C)/C=C/C=C3\CO[C@@H]4[C@H](O)C(C)=C[C@@H](C(=O)O1)[C@]34O)O2 ?
< 7.00

As a next step, examine the compound that follows.
I am curious: what pKi value has been reported for CC[C@H](C)[C@H]1O[C@]2(CC[C@@H]1C)C[C@@H]1C[C@@H](CC(N3CCOCC3)/C(C)=C\[C@@H](C)/C=C/C=C3\CO[C@@H]4[C@H](O)C(C)=C[C@@H](C(=O)O1)[C@]34O)O2 (some centres not stated) ?
< 7.00
